assay.overview: AUC in rat at 10 mg/kg, po
Format: ADME, organism-based
run.parameters: in vivo
endpoint.label: AUC (µM·h)
Report the figure in µM·h without appending any unit label.

Problem: Consider the molecule `O=C(O)CCC(=O)N(C1CC1)[C@H]1c2cc(F)ccc2N(C(=O)c2ccc(OC(F)(F)F)cc2)[C@H]2CCC[C@H]21` and give its recorded AUC.
Result: 6.77

* * *

assay.overview: Half life in dog at 1 mg/kg, iv
Assay type: ADME, organism-based, Canis lupus familiaris
run.parameters: in vivo
endpoint.label: half-life (min)
Report the figure in min without appending any unit label.

Problem: Consider the compound `O=C(O)CCC(=O)N(C1CC1)[C@H]1c2cc(F)ccc2N(C(=O)c2ccc(OC(F)(F)F)cc2)[C@H]2CCC[C@H]21` and give its recorded half-life.
Result: 624
